Provide the reported PBM binding z-score of each item.
test system: RARa homodimer (NR concentration 270 nM); test: PBM binding z-score (relative to random genomic background probes); higher = stronger binding; sequences stand for … in GC…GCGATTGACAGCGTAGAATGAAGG
Give bare numbers.

Check out these entries, answers already filled in.
{"columns": ["sequence code", "target entity", "PBM binding z-score"],
 "data": [
  ["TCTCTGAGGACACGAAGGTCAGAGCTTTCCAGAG", "RARa homodimer (NR concentration 270 nM)", -0.145],
  ["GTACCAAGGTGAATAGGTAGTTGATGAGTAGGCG", "RARa homodimer (NR concentration 270 nM)", 0.745]
]}

Here are 5 sequences. What values of PBM binding z-score were reported for them?
1. TCTCGGAGGACACGAAAGTTCAGAGCTCGACATC
2. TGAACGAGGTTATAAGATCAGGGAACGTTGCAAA
3. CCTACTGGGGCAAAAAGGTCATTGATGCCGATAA
4. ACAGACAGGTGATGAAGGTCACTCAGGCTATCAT
5. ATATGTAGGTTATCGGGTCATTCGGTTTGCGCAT

[0.226, -0.0844, 2.82, 0.664, 1.12]

###

Provide the reported PBM binding z-score of each item.
tested on: PPARg homodimer (NR concentration 180 nM); assay: PBM binding z-score (relative to random genomic background probes); higher = stronger binding; sequences stand for … in GC…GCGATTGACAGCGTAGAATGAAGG
One number for each entry.

{"columns": ["sequence code", "PBM binding z-score"],
 "data": [
  ["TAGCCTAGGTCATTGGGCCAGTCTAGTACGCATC", 1.58],
  ["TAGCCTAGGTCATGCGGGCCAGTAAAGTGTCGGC", 0.811],
  ["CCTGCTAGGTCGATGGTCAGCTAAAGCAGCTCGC", -0.348]
]}

Here are 8 sequences. What values of PBM binding z-score were reported for them?
1. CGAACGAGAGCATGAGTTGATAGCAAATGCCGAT
2. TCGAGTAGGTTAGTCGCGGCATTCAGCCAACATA
3. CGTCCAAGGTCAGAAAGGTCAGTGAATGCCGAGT
4. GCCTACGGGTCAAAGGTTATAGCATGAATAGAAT
5. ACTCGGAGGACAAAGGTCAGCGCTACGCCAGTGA
6. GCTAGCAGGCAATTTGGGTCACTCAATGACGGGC
7. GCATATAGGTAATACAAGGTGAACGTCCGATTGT
8. GGAACGAGGACATTCGAGTTGATAGCATGGCGAT

-0.221
-0.911
3.94
1.95
4.7
-0.111
0.673
-0.204

###

tested on: PPARg:RXRa (NR concentration 180 nM, RXRa partner concentration 90 nM); assay: PBM binding z-score (relative to random genomic background probes); higher = stronger binding; sequences stand for … in GC…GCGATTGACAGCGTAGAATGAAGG
parameter: PBM binding z-score
Numbers only.

{"columns": ["sequence code", "PBM binding z-score"],
 "data": [
  ["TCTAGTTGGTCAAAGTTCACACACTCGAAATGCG", 9.83],
  ["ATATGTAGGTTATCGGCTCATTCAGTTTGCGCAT", 4.14],
  ["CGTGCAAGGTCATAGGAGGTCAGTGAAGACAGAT", 6.01],
  ["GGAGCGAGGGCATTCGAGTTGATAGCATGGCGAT", 0.179],
  ["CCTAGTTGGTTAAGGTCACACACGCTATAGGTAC", 2.68]
]}

Here are 8 sequences. What values of PBM binding z-score were reported for them?
1. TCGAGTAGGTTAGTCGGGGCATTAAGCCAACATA
2. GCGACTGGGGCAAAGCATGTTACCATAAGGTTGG
3. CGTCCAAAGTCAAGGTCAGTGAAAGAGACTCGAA
4. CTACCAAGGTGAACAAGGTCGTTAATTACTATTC
5. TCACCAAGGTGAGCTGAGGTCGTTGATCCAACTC
6. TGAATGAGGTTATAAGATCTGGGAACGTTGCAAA
7. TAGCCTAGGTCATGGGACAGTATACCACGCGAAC
8. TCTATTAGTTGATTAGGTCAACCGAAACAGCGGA

[0.0278, 1.61, 0.614, 1.07, 0.00194, 1.01, 3.92, 1.16]

Data provenance is the supplement of paper PMC6555819.
